Values compiled from ChEMBL document CHEMBL1201862.

- System: CAKI-1
- protocol_summary: NCI tumour cell line growth inhibition, 48 h
Calls of active or inactive are those of the source. Rule as the data show it: active = GI50 up to about 1.1 µM and inactive = higher.
Reply using exactly one outcome from active, inactive

>>> classification("Cc1c(-c2ccccc2)oc(=O)c2ccccc12")
"inactive"

// switching to the query molecule
Returns: the outcome recorded for Clc1cc(-c2csc(Cl)c2)cs1 in this assay. inactive

---

- Test system: A549
- protocol_summary: NCI tumour cell line growth inhibition, 48 h
Calls of active or inactive are those of the source. No stated cut-off is given here; in the data, active = GI50 up to about 1.1 µM and inactive = higher.
Allowed answers: y for active, n for inactive

>>> classification("CNC(=O)OCc1c(COC(=O)NC)c(C)n(-c2ccc(Br)cc2)c1C")
"n"

Could you kindly confirm the outcome this assay logged for C/C(=C1/CCCC2(N=NCC2c2ccccc2)C1=O)c1ccccc1 (stereo unspecified) ? n

Could you kindly confirm the outcome this assay logged for CC(=O)O[C@H]1C(=O)[C@@]2(C)C(C(OC(=O)c3ccccc3)[C@]3(O)CC(OC(=O)C(O)C(NC(=O)c4ccccc4)c4ccc(F)cc4)C(C)=C1C3(C)C)[C@]1(OC(C)=O)CO[C@@H]1C[C@@H]2O (stereo partly specified) ? y

Call for entry CC(=O)OC(Cc1cc(C=C(C(F)(F)F)C(F)(F)F)cc(C)n1)(C(F)(F)F)C(F)(F)F : n

Recorded test call requested for CCCCNC(=S)Nc1nc(C(=O)NNC(=S)NC2CCCCC2)cs1 n

Short answer needed: outcome of this test for COc1ccc(CNc2nc3ccc(C(F)(F)F)cc3nc2-c2ccccc2)cc1OC ? n

What did the test return for c1csc(-c2csc(-c3cccs3)c2)c1 ? n

Can you look up the reported call for CO[C@H](C)[C@](O)(C(=O)OCC1=CCN2CC[C@@H](O)[C@H]12)C(C)C for me? n

What did this assay record as the result for CCCn1c(SC)nc(COC(=O)NC)c1COC(=O)NC ? n
